Would you kindly list GI50 for each of these compounds?
- Tested on: SK-MEL-30 skin melanoma cell line (heterozygous NRAS Q61K)
- assay.name: Cell proliferation assay (resazurin cell viability), SK-MEL-30 cell line
- Assay type: cell-based
- assay.conditions: SK-MEL-30 cell line, average of Rep. 1 and 2; read-out: GI50 SK-MEL-30 Average
Starred links: 1 amine or outer side, 2 acyl side, 3 side chain; linkers in the order of their positions; H or OH if unused. Positions of bridges follow the written chain, without caps; N, C: chain ends. Non-standard residues stand in square brackets, D forms with d. Residues, ends and D or L forms follow the SMILES beside them. ξ: configuration not given here. *: point of attachment. Leu(3R-O(AcLeu(3R-OH))) = CC(=O)N[C@H](C(=O)O[C@H](C(C)C)[C@H](N)C(=O)O)[C@H](O)C(C)C; X1 = CC(C)[C@@H](O[*:3])[C@H](N[*:1])C(=O)[*:2]; X4 = CCC(=O)N[C@H](C(=O)*)[C@H](O)CSC; ξLeu(3ξ-OH) = CC(C)C(O)C(N)C(=O)O; NMeT = CN[CH](C(=O)O)[CH](C)O; dPhLac = O=C(O)[C@H](O)Cc1ccccc1; PhLac = O=C(O)[CH](O)Cc1ccccc1; NMeA = CN[CH](C)C(=O)O; NMeDha = C=C(NC)C(=O)O

Solved entries:
* C=C1C(=O)N[C@@H](C)C(=O)N(C)[C@@H](C)C(=O)N[C@@H]([C@H](OC(=O)[C@@H](NC(C)=O)[C@H](O)C(C)C)C(C)C)C(=O)N(C)[C@@H]([C@@H](C)OC)C(=O)O[C@H](C(C)C)[C@H](NC(C)=O)C(=O)O[C@H](Cc2ccccc2)C(=O)N1C [Compound 8] (Ac-[X1][dPhLac][NMeDha]A[NMeA][Leu(3R-O(AcLeu(3R-OH)))][NMeT](Me); ester 1-C) | > 260 nM
* C=C1C(=O)N[C@@H](C)C(=O)N(C)[C@@H](C)C(=O)N[C@@H]([C@H](OC(=O)[C@@H](NC(=O)CC)[C@H](O)CSC)C(C)C)C(=O)N(C)[C@@H]([C@@H](C)OC)C(=O)O[C@H](C(C)C)[C@H](NC(C)=O)C(=O)O[C@H](Cc2ccccc2)C(=O)N1C [Compound 4] (Ac-[X1][dPhLac][NMeDha]A[NMeA][X1](X4)[NMeT](Me); ester 1-C) | > 260 nM
* C=C1C(=O)N[C@@H](C)C(=O)N(C)[C@@H](C)C(=O)N[C@@H]([C@H](OC(=O)[C@@H](NC(C)=O)[C@H](O)C(C)C)C(C)C)C(=O)N(C)[C@@H]([C@@H](C)OC)C(=O)O[C@H](C)[C@H](NC(C)=O)C(=O)O[C@H](Cc2ccccc2)C(=O)N1C [Compound 13] (Ac-T[dPhLac][NMeDha]A[NMeA][Leu(3R-O(AcLeu(3R-OH)))][NMeT](Me); ester 1-C) | > 260 nM

Here is the next item to consider.
input: // lookup GI50 for C=C1C(=O)NC(C)C(=O)N(C)C(C)C(=O)NC(C(O)C(C)C)C(=O)N(C)C(C(C)OC)C(=O)OC(C)C(NC(C)=O)C(=O)OC(Cc2ccccc2)C(=O)N1C (stereo not shown) [Compound 15] (Ac-T[PhLac][NMeDha]A[NMeA][ξLeu(3ξ-OH)][NMeT](Me); ester 1-C; configuration not given here)
output: > 10000 nM
